The measured values listed here are drawn from patent US20250268873A1.

# System Under Test: UniProt:Q12809
# Sequence (Q12809 whole entry): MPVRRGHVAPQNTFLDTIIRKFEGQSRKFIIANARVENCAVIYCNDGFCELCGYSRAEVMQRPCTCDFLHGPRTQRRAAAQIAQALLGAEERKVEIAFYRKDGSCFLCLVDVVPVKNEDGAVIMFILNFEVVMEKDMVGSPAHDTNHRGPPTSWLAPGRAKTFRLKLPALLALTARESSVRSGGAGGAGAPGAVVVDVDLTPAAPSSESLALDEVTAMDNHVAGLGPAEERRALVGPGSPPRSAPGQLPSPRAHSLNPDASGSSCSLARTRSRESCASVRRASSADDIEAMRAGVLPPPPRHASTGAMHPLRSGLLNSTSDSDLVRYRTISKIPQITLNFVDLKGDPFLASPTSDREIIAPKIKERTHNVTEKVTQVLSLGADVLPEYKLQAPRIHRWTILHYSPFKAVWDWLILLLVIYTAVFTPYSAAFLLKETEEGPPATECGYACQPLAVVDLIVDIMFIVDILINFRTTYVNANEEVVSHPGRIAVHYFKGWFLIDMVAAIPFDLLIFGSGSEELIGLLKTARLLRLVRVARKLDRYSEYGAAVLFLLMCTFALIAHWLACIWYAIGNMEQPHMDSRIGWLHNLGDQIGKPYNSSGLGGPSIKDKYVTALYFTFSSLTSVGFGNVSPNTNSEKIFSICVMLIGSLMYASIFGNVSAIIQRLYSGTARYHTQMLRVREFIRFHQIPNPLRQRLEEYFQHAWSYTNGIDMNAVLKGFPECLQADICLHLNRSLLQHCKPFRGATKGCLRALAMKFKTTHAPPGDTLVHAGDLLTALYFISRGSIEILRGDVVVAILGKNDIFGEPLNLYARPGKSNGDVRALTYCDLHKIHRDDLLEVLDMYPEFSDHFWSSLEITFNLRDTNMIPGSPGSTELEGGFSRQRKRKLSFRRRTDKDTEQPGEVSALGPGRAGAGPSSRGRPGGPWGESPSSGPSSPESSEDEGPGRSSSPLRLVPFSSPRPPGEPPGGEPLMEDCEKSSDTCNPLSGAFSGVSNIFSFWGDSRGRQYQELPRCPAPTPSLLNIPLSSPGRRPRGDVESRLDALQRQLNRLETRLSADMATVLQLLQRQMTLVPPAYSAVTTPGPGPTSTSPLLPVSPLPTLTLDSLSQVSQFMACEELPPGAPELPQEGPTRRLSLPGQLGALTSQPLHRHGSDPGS
# Test: In-Vitro hERG Inhibition Assay (manual patch clamp)
# Format: cell-based
# Run Parameters: hERG-T-REx HEK 293 cells
Attribute Measured: IC50

input: # query: IC50 of entry CC(C)NCCOc1ncc(-c2cc3c4c(cnc3cc2F)N(C)C(=O)C42CCC2)cc1NS(C)(=O)=O [Compound 569]
output: > 30 µM

----------
# System Under Test: mTOR (Homo sapiens)
pIC50: −log10 of the molar value.
Attribute Measured: pIC50

input: # query: pIC50 of entry CC(C)NCCOc1ncc(-c2cc3c4c(cnc3cc2F)N(C)C(=O)C42CCC2)cc1NS(C)(=O)=O
output: < 7.00
